Target: G12V-mutant human KRAS (amino acid residues 1-188) (Homo sapiens, UniProt P01116, G12V)
Construct: G12V-mutant human KRAS (amino acid residues 1-188) with FLAG tag was purified from E. coli; made in house; host or cells: E. coli
Assay: KRAS Binding Competition Assay (AlphaScreen; biotinylated KRpep-2d analogue), G12V
Details: geometric mean, read-out: KRAS GMean IC50 (uM) MUTATION: G12V
endpoint: IC50

Below: 6 compounds and their reported IC50.
Oc1cc(-c2ccc3c(N4C[C@H]5CC[C@@H](C4)N5)nc(N4CC5CCC(C4)N5)nc3c2F)c2ccccc2c1 [P-0381] :: 100 to 1000 µM
Cc1n[nH]c(C)c1-c1ccc2c(N3C[C@H]4CC[C@@H](C3)N4)nc(OC[C@@H]3CCCN3C)nc2c1 [P-0176] :: 100 to 1000 µM
OCC1(COc2nc(N3C[C@H]4CC[C@@H](C3)N4)c3ccc(-c4cc(O)cc5ccccc45)c(F)c3n2)CCOCC1 [P-0612] :: 10 to 100 µM
CN(C)c1ccc(/C=C/c2nc(N3C[C@H]4CC[C@@H](C3)N4)c3cc(Cl)c(-c4c(O)cccc4F)c(F)c3n2)cc1 [P-0355] :: 0.0001 to 10 µM
CN1CCC[C@H]1COc1nc(N2[C@@H]3CC[C@H]2CN(C(=O)CC(N)=O)C3)c2ccc(-c3cc(O)cc4ccccc34)cc2n1 [P-0227] :: 100 to 1000 µM
Cc1cccc2c1N(c1ccc3c(N4C[C@H]5CC[C@@H](C4)N5)nc(OC[C@@H]4CCCN4C)nc3c1F)CC(O)C2 (stereo partly drawn) [P-0360] :: 10 to 100 µM

Noted for CN1CCC[C@H]1COc1nc(N2[C@@H]3CC[C@H]2CNC3)c2ccc(-c3c(N)cccc3Cl)cc2n1 [P-0300] : its IC50 reads 10 to 100 µM

Noted for Fc1cc2c(N3C[C@H]4CC[C@@H](C3)N4)nc(OCC34CCCN3CCC4)nc2c(F)c1-c1c[nH]c2cccc(F)c12 [P-0448] : its IC50 reads 10 to 100 µM

* * *

Molecular target: G12V-mutant human KRAS (amino acid residues 1-188) (Homo sapiens, UniProt P01116, G12V)
Construct: G12V-mutant human KRAS (amino acid residues 1-188) with FLAG tag was purified from E. coli; made in house; host or cells: E. coli
Test: KRAS Binding Competition Assay (AlphaScreen; biotinylated KRpep-2d analogue), G12V
Conditions: geometric mean, read-out: KRAS GMean IC50 (uM) MUTATION: G12V
IC50 values, listed per item

CN1CCC[C@H]1COc1nc(N2C[C@H]3CC[C@@H](C2)N3C(=O)NC2CCNC2)c2ccc(-c3cc(O)cc4ccccc34)c(F)c2n1 (stereo partly drawn) :: 0.0001 to 10 µM

Noted for `O=C(c1ccccn1)N1[C@@H]2CC[C@H]1CN(c1nc(OCC34CCCN3CCC4)nc3cc(-c4cc(O)cc5ccccc45)ccc13)C2` : its IC50 reads 0.0001 to 10 µM

Noted for CONC(=O)N1[C@@H]2CC[C@H]1CN(c1nc(OCC3CCCN3C)nc3c(F)c(-c4cc(O)cc5ccccc45)ccc13)C2 (stereo partly drawn) : its IC50 reads 10 to 100 µM

* * *

Biological target: G12D-mutant human KRAS (amino acid residues 1-188) (Homo sapiens, UniProt P01116, G12D)
Construct: G12D or G12C-mutant human KRAS (amino acid residues 1-188) with FLAG tag; made in house; host or cells: E. coli
Experiment: KRAS Binding Disruption Assay (AlphaScreen; biotinylated KRpep-2d analogue or RAF1-RBD), G12D
Conditions: KRAS G12D; geometric mean; read-out: KRAS GMean IC50 (uM) MUTATION: G12D
IC50 values, listed per item

O=C(O)CCC(=O)N1[C@@H]2CC[C@H]1CN(c1nc(OCC34CCCN3CCC4)nc3cc(-c4cc(O)cc5ccccc45)ccc13)C2 :: 0.0001 to 10 µM

Noted for `CN1CCC[C@H]1COc1nc(N2C[C@H]3CC[C@@H](C2)O3)c2ccc(-c3cc(O)cc4ccccc34)c(F)c2n1` : its IC50 reads 0.0001 to 10 µM

Noted for CN1CCC[C@H]1COc1nc(N2[C@@H]3CC[C@H]2CN(C(=O)C2CCC(=O)N2)C3)c2ccc(-c3cc(O)cc4ccccc34)cc2n1 (stereo partly drawn) : its IC50 reads 10 to 100 µM

Noted for CN1CCC[C@H]1COc1nc(N2[C@@H]3CC[C@H]2CN(C(=O)CCC2CCCCN2)C3)c2ccc(-c3cc(O)cc4ccccc34)cc2n1 (stereo partly drawn) : its IC50 reads 10 to 100 µM

Noted for CN1CCC[C@H]1COc1nc(N2C[C@H]3CC[C@@H](C2)N3C(=O)CC2CCNC2=O)c2ccc(-c3cc(O)cc4ccccc34)cc2n1 (stereo partly drawn) : its IC50 reads 10 to 100 µM

Noted for `CN1CCC[C@H]1COc1nc(N2[C@@H]3CC[C@H]2CN(C(=O)Cc2n[nH]c4ccccc24)C3)c2ccc(-c3cc(O)cc4ccccc34)cc2n1` : its IC50 reads 10 to 100 µM

* * *

Target: G12D-mutant human KRAS (amino acid residues 1-188) (Homo sapiens, UniProt P01116, G12D)
Construct: G12D or G12C-mutant human KRAS (amino acid residues 1-188) with FLAG tag; made in house; host or cells: E. coli
Assay: KRAS Binding Disruption Assay (AlphaScreen; biotinylated KRpep-2d analogue or RAF1-RBD), G12D
Settings: KRAS G12D; geometric mean; read-out: KRAS GMean IC50 (uM) MUTATION: G12D
endpoint: IC50

Below: 3 compounds and their reported IC50.
O=C1NC(=O)/C(=C/C(=O)N2[C@@H]3CC[C@H]2CN(c2nc(OCC45CCCN4CCC5)nc4c(F)c(-c5cc(O)cc6ccccc56)ccc24)C3)S1 :: 0.0001 to 10 µM
CN1CCC[C@H]1COc1nc(N2C[C@H]3CC[C@@H](C2)N3C(=O)CCn2cccn2)c2ccc(-c3cc(O)cc4ccccc34)cc2n1 :: 0.0001 to 10 µM
CN1CCC[C@H]1COc1nc(N2C[C@H]3CC[C@@H](C2)N3C(N)=O)c2ccc(-c3cc(O)cc4ccccc34)c(F)c2n1 :: 0.0001 to 10 µM

Could you now look at the following compound, please?
Noted for `CN1CCN(CCCC(=O)N2C3COCC2CN(c2nc(OC[C@@H]4CCCN4C)nc4c(F)c(-c5cc(O)cc6ccccc56)ccc24)C3)CC1` : its IC50 reads 10 to 100 µM

* * *

Biological target: G12V-mutant human KRAS (amino acid residues 1-188) (Homo sapiens, UniProt P01116, G12V)
Construct: G12V-mutant human KRAS (amino acid residues 1-188) with FLAG tag was purified from E. coli; made in house; host or cells: E. coli
Assay: KRAS Binding Competition Assay (AlphaScreen; biotinylated KRpep-2d analogue), G12V
Conditions: geometric mean, read-out: KRAS GMean IC50 (uM) MUTATION: G12V
IC50 values, listed per item

CN1CCC[C@H]1COc1nc(N2C[C@H]3CC[C@@H](C2)N3)c2cc(F)c(-c3c[nH]c4ccc(Cl)cc34)c(F)c2n1 :: 10 to 100 µM
CN1CCC[C@H]1COc1nc(N2[C@@H]3CC[C@H]2CN(CC(=O)N2CC(O)C2)C3)c2ccc(-c3cc(O)cc4ccccc34)cc2n1 :: 10 to 100 µM

Could you now look at the following molecule, please?
Param item: `CN1CCC[C@H]1COc1nc(N2[C@@H]3CC[C@H]2CN(C2CNC2)C3)c2ccc(-c3cc(O)cc4ccccc34)cc2n1` ; param system: G12V-mutant human KRAS (amino acid residues 1-188) (Homo sapiens, UniProt P01116, G12V); output IC50: 100 to 1000 µM

* * *

Target: G12V-mutant human KRAS (amino acid residues 1-188) (Homo sapiens, UniProt P01116, G12V)
Construct: G12V-mutant human KRAS (amino acid residues 1-188) with FLAG tag was purified from E. coli; made in house; host or cells: E. coli
Assay: KRAS Binding Competition Assay (AlphaScreen; biotinylated KRpep-2d analogue), G12V
Details: geometric mean, read-out: KRAS GMean IC50 (uM) MUTATION: G12V
IC50 values, listed per item

Oc1cccc(F)c1-c1ccc2c(N3C[C@H]4CC[C@@H](C3)N4)nc(OCC34CCCN3CCC4)nc2c1F [P-0049] :: 100 to 1000 µM
Nc1ccc(CCc2nc(N3[C@@H]4CC[C@H]3CNC4)c3ccc(-c4cc(O)cc5ccccc45)cc3n2)cc1 [P-0243] :: 0.0001 to 10 µM
CN1CCC[C@H]1COc1nc(N2C[C@H]3CC[C@@H](C2)N3)c2ccc(-c3cc(Cl)ccc3O)cc2n1 [P-0166] :: 100 to 1000 µM
NC(=O)CCc1nc(N2[C@@H]3CC[C@H]2CNC3)c2ccc(-c3cc(O)cc4ccccc34)cc2n1 [P-0233] :: 0.0001 to 10 µM

Noted for CN1CCC[C@H]1COc1nc(N2[C@@H]3CC[C@H]2CN(C(=O)Cc2n[nH]c4ccccc24)C3)c2ccc(-c3cc(O)cc4ccccc34)cc2n1 [P-0312] : its IC50 reads 10 to 100 µM

Noted for CN1CCC[C@H]1COc1nc(N2[C@@H]3CC[C@H]2CN(C(=O)CCC2CNCCN2)C3)c2ccc(-c3cc(O)cc4ccccc34)cc2n1 (stereo partly shown) [P-0194] : its IC50 reads 10 to 100 µM

Noted for Cc1cccc2cc(O)cc(-c3c(F)cc4c(N5C[C@H]6CC[C@@H](C5)N6)nc(OC[C@@H]5CCCN5C)nc4c3F)c12 [P-0087] : its IC50 reads 0.0001 to 10 µM
